experimental-target: UniProtKB P28223
Sequence (P28223 whole entry): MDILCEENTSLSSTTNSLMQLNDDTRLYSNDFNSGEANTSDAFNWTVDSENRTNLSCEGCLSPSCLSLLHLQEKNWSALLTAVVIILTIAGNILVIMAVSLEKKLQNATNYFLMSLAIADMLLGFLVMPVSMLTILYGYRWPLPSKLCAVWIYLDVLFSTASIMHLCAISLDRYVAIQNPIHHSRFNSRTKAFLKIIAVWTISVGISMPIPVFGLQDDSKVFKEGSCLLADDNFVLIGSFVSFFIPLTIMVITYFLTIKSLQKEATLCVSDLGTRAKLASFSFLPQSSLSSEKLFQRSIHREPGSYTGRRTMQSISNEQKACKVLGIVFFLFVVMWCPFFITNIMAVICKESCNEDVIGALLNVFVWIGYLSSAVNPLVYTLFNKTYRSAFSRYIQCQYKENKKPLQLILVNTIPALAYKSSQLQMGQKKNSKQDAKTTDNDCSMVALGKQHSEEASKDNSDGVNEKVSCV
experiment-notes: Radioligand binding ([3H]-ketanserin) to cloned 5-HT2A receptor expressed in HEK-293 EBNA cells
Please respond with reported Ki for every item in the list.
One number for each entry, in nM.

In the examples that follow, each entry is paired with its recorded Ki.
compound	Ki (nM)
O=C(CC1COCCO1)N[C@H]1CC[C@H](CCN2CCN(c3cccc4c3OCO4)CC2)CC1 (some centres unmarked) [Example 3]	11.8
CC(C)[C@@H](O)C(=O)N[C@H]1CC[C@H](CCN2CCN(c3cccc4c3OCO4)CC2)CC1 [Example 39]	34.7
O=C(N[C@H]1CC[C@H](CCN2CCN(c3cccc4c3OCO4)CC2)CC1)c1ccc2c(c1)OCCO2 [Example 49]	10.7
CC(C)[C@H](O)C(=O)N[C@H]1CC[C@H](CCN2CCN(c3cccc4c3OCO4)CC2)CC1 [Example 40]	22.5
COC(C)CC(=O)N[C@H]1CC[C@H](CCN2CCN(c3cccc4c3OCO4)CC2)CC1 (some centres unmarked) [Example 21]	24.3
CCC(O)C(=O)N[C@H]1CC[C@H](CCN2CCN(c3cccc4c3OCO4)CC2)CC1 (some centres unmarked) [Example 38]	25.8
CN1CCC(C(=O)N[C@H]2CC[C@H](CCN3CCN(c4cccc5c4OCO5)CC3)CC2)CC1 [Example 57]	15.3

Item O=C(N[C@H]1CC[C@H](CCN2CCN(c3cccc4c3OCO4)CC2)CC1)C1CCOCC1 [Example 43] ; assay system UniProtKB P28223; Ki reported as 7.74

* * *

Give measured log10 Ki for each item. Keep answers brief.
experimental-target: D2 receptor (Homo sapiens (Human))
Sequence (P14416 whole entry): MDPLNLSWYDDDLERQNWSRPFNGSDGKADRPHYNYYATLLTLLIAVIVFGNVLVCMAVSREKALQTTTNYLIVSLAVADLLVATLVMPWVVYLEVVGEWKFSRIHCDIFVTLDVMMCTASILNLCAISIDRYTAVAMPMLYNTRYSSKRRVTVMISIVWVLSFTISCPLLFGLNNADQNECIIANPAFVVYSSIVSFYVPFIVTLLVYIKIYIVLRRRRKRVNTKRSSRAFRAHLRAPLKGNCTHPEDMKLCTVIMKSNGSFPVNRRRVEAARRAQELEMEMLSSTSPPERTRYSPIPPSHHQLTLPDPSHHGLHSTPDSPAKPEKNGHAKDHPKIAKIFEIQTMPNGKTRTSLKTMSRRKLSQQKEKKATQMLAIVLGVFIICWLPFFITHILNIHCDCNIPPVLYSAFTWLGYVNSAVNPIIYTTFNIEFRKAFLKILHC
experiment-notes: Radioligand binding ([3H]-spiperone) to cloned D2 receptor expressed in HEK-293 EBNA cells
settings: HEK293 EBNA membranes, 0.7 nM [3H]-spiperone
Annotation: log10 of Ki, nM basis.

Example cases with answers are listed next.
compound	log10 Ki
O=S(=O)(N[C@H]1CC[C@H](CCN2CCN(c3cccc4c3OCO4)CC2)CC1)c1ccc(F)cc1	1.66
COC(C)CC(=O)N[C@H]1CC[C@H](CCN2CCN(c3cccc4c3OCO4)CC2)CC1 (some centres unmarked)	2.26

Dear reader, for each entry below, please note its log10 Ki.
1. O=C(N[C@H]1CC[C@H](CCN2CCN(c3cccc4c3OCO4)CC2)CC1)c1ccnc2ccccc12
2. CC(C)[C@@H](O)C(=O)N[C@H]1CC[C@H](CCN2CCN(c3cccc4c3OCO4)CC2)CC1
3. O=C(N[C@H]1CC[C@H](CCN2CCN(c3cccc4c3OCO4)CC2)CC1)c1cccnc1

Reply |
2.71
1.96
1.95

* * *

experimental-target: D2 receptor (Homo sapiens (Human))
experiment-notes: Radioligand binding ([3H]-spiperone) to cloned D2 receptor expressed in HEK-293 EBNA cells
settings: HEK293 EBNA membranes, 0.7 nM [3H]-spiperone
assay-endpoint: Ki (µM)
One number for each entry, in µM.

Worked examples follow.
cpd-smiles	Ki, µM
[2H]C1([2H])Oc2cccc(N3CCN(CC[C@H]4CC[C@H](NC(=O)C(C)(C)O)CC4)CC3)c2O1	0.0972
O=C(N[C@H]1CC[C@H](CCN2CCN(c3cccc4c3OCO4)CC2)CC1)C1CCOCC1	0.219

Now for another entry.
Consider `COC1(C(=O)N[C@H]2CC[C@H](CCN3CCN(c4cccc5c4OCO5)CC3)CC2)CC1` . Its measured Ki is 0.0865

* * *

experimental-target: D2 receptor (Homo sapiens (Human))
experiment-notes: Radioligand binding ([3H]-spiperone) to cloned D2 receptor expressed in HEK-293 EBNA cells
settings: HEK293 EBNA membranes, 0.7 nM [3H]-spiperone
I'd be grateful if you could share measured Ki for these entries.
Answers are plain numbers, in µM.

Give one value of Ki per listed molecule.
1. CC(C)[C@H](O)C(=O)N[C@H]1CC[C@H](CCN2CCN(c3cccc4c3OCO4)CC2)CC1
2. O=S(=O)(N[C@H]1CC[C@H](CCN2CCN(c3cccc4c3OCO4)CC2)CC1)N1CCOCC1
3. CC1(C(=O)N[C@H]2CC[C@H](CCN3CCN(c4cccc5c4OCO5)CC3)CC2)COC1
4. [2H]C1([2H])Oc2cccc(N3CCN(CC[C@H]4CC[C@H](NC(=O)[C@@H](C)OC)CC4)CC3)c2O1
5. CCC(=O)N[C@H]1CC[C@H](CCN2CCN(c3cccc4c3OCO4)CC2)CC1
6. CCC(O)C(=O)N[C@H]1CC[C@H](CCN2CCN(c3cccc4c3OCO4)CC2)CC1 (stereo partly drawn)

Reply |
[0.0734, 0.063, 0.0811, 0.148, 0.0745, 0.122]
